Test system: MDA-MB-435 melanoma
PROTOCOL TEXT: NCI-60 one-dose screen, 48 h (100 = growth as untreated, 0 = no growth, -100 = all killed)
RUN CONDITIONS: 10 µM unless noted
Compounds without any hit were thinned out: in the full panel of roughly 83,000, 20% have a hit.
READOUT KIND: growth (%)
# unit: % | format: bare number

COc1ccc([N+](=O)[O-])c(/C=C/C(=O)c2ccccn2)c1 :: 94.5
CSc1nc(-c2cc3ccccc3o2)cc(-c2ccc(Cl)cc2)c1C#N :: 111
CCCCCCCCCCCCOB(OCCCCCCCCCCCC)OCCCCCCCCCCCC :: 114

Observed growth on MDA-MB-435 melanoma for Cc1cc2c(C(C)C)c(O)c(O)c(C=NCCCCC(=O)O)c2c(O)c1-c1c(C)cc2c(C(C)C)c(O)c(O)c(C=NCCCCC(=O)O)c2c1O , please.
61

Observed growth on MDA-MB-435 melanoma for O=C(O)c1ccc(-n2c(=O)c3ccccc3c3ccccc3c2=O)cc1 , please.
103

---

Test system: HCC-2998 colon
PROTOCOL TEXT: NCI-60 one-dose screen, 48 h (100 = growth as untreated, 0 = no growth, -100 = all killed)
RUN CONDITIONS: 10 µM unless noted
This is part of a sample that, as a whole, favours compounds with a hit. Of some 83,000 tested, about 20% had one in any assay.
Record TRUE whenever growth is at 90% or higher; record FALSE when lower.

Clc1ccc(-c2nc(-c3ccco3)cn3ccnc23)cc1 :: FALSE

Given CCN1C(=O)N(CC)C2C1NN=c1s/c(=C3\C(=O)N(C4CCCC4)c4ccccc43)c(=O)n12 (configuration not stated) , state whether its growth is at least 90%.
FALSE

Given COc1ccc(S(=O)(=O)NCCNc2nccc(-c3c(-c4ccccc4)nc4sccn34)n2)cc1 , state whether its growth is at least 90%.
FALSE

Given COC1=CC(c2ccc[nH]2)=N/C1=C\c1[nH]c(C)c(C(=O)CCCCC(=O)NCc2ccccc2)c1C , state whether its growth is at least 90%.
FALSE

Given O=C(N/N=C/c1c(Cl)cccc1Cl)c1ccccc1Nc1ccnc(C(F)(F)F)c1 , state whether its growth is at least 90%.
FALSE

Given CCSc1nnc(Nc2ccc(C(C)C)cc2)s1 , state whether its growth is at least 90%.
TRUE

Given CC(=O)Nc1nc(C(=O)N2N=C(C)/C(=C/c3ccc(Cl)cc3)C2=O)cs1 , state whether its growth is at least 90%.
TRUE

Given Cc1ccc2c(c1)C(C)Cc1c(N(C)C)ncnc1N2C (configuration not stated) , state whether its growth is at least 90%.
FALSE

Given COc1ccc2c(c1)C=CC(C#N)N2C(=O)c1ccccc1 (configuration not stated) , state whether its growth is at least 90%.
FALSE

Given Nc1ccc(S(=O)(=O)c2ccc(Cl)cc2)cc1 , state whether its growth is at least 90%.
TRUE

Given NC(=S)NN=C1CCCCC1 , state whether its growth is at least 90%.
TRUE

Given CC(C(=O)n1cc(-c2ccccc2)c(-c2ccccc2)c1)c1ccccc1 (configuration not stated) , state whether its growth is at least 90%.
TRUE

Given CCN1C(=O)N(CC)C2C1NN=c1s/c(=C\c3ccccn3)c(=O)n12 (configuration not stated) , state whether its growth is at least 90%.
FALSE

---

Test system: PC-3 prostate
PROTOCOL TEXT: NCI-60 one-dose screen, 48 h
RUN CONDITIONS: 10 µM unless noted
About 83,000 compounds went through this panel and 20% of them were active in at least one assay; those are over-represented in the sample as a whole. The source made the active and inactive calls. Rule for the calls: active = growth percent below 10; inactive = the rest.
Hello, when you answer, please use one of the following outcomes: Yes (active), No (inactive)

Worked set:
COc1cccc(NC(=O)c2sc3nc4c(cc3c2N)CCCC4)c1 :: No
O=C(c1ccccc1)C(Cl)C(Cl)c1ccccc1 (stereo unspecified) :: No
CN(C)C1CCC(NC2=CC(=O)C=CC2=O)CC1 (stereo unspecified) :: No
COc1ccc(/C=C/c2nc(N3CCOCC3)c3cc(F)c(F)cc3n2)cc1OC :: Yes
Cc1cc(C)c(NC(=O)c2sc3nc4c(cc3c2N)CN(Cc2ccccc2)CC4)c(C)c1 :: No
Cn1c(=O)c2c(nc3n2CCN(CCc2ccc(OCCN4CCOCC4)cc2)C3)n(C)c1=O :: No

Now consider a different molecule.
// param item: O=C(CN1CCN(c2cc3c(cc2F)c(=O)c(C(=O)O)cn3C2CC2)CC1)Nc1ccc(C(=O)/C=C/c2ccc(Cl)cc2)cc1 ; yields the recorded call
No

---

Test system: SW-620 colon
PROTOCOL TEXT: NCI-60 one-dose screen, 48 h (100 = growth as untreated, 0 = no growth, -100 = all killed)
RUN CONDITIONS: 10 µM unless noted
Compounds without any hit were thinned out: in the full panel of roughly 83,000, 20% have a hit.
Recorded growth, one value per entry.
# unit: % | format: bare number

Some entries whose results are on file:
CN(C)c1ccc(/C=C\N=Nc2ccc(Br)cc2)cc1 :: 29.5
COc1ccc(-c2cn[nH]c2-c2cc(OC)c3c(c2)OCCO3)cc1 :: 25.5
CC(C)C[C@H](NC(=O)[C@@H](Cc1ccccc1)n1ccc(Nc2ccccc2)cc1=O)B(O)O :: -10.4
COc1cc(-c2n[nH]nc2-c2ccc3c(c2)OCCO3)cc(OC)c1OC :: 19.4

What value of growth has been reported for the following compound? COc1cc2nc(N3CCC[C@@H](NC4=CC(=O)c5ccccc5C4=O)C3)nc(N)c2cc1OC
-60.6

---

Recorded growth, one value per entry.
System: SF-295 CNS
PROTOCOL TEXT: NCI-60 one-dose screen, 48 h (100 = growth as untreated, 0 = no growth, -100 = all killed)
RUN CONDITIONS: 10 µM unless noted
Compounds without any hit were thinned out: in the full panel of roughly 83,000, 20% have a hit.
# unit: % | format: bare number

Some entries whose results are on file:
Nc1ccc(S(=O)(=O)c2ccc(Cl)cc2)cc1 :: 98.2
CC(C)(C)OC(=O)N[C@@H](Cc1ccccc1)C(=O)N(Cc1ccccc1)C1(C(=O)NCc2ccccc2)CCN(Cc2ccccc2)CC1 :: 39.2
Nc1c(C(=O)Nc2cccc([N+](=O)[O-])c2)sc2nc3c(cc12)C(O)CCC3 (stereo unspecified) :: 57.4
COc1ccc(-n2c(C)cc(-c3ccccc3)c2C)cc1 :: 34.1
COC1=CC(c2ccc[nH]2)=N/C1=C\c1[nH]c(C)c(C(=O)CCCCC(=O)Oc2ccc3c(c2)CCC2C3CC[C@]3(C)[C@@H](O)CC[C@@H]23)c1C (stereo partly specified) :: 80.8
COc1ccc(/C=C/C(=O)c2cccc(B(O)O)c2)cc1O :: 87.4

Let's switch to this compound now.
What value of growth has been reported for the following compound? CCCCCCCCCCn1cc[n+](C)c1
9.99

---

Recorded growth, one value per entry.
System: OVCAR-5 ovarian
PROTOCOL TEXT: NCI-60 one-dose screen, 48 h (100 = growth as untreated, 0 = no growth, -100 = all killed)
RUN CONDITIONS: 10 µM unless noted
The panel holds about 83,000 compounds, 20% with a hit somewhere; the sample as a whole holds those more often.
# unit: % | format: bare number

Some entries whose results are on file:
COc1ccc(C(=O)N2CCN(C(=O)c3cc(OC)c(OC)c(OC)c3)CC2)cc1OCCCCOc1cc2c(cc1OC)C(=O)N1CCC[C@H]1C=N2 :: 111
CCN(CC)CCSc1c2ccc(Cl)cc2nc2ccc(OC)cc12 :: 103
COc1cc(C(=O)/C=C/c2cc(C(=O)c3cc(OC)c(OC)c(OC)c3)ccc2OC)ccc1N :: -54.1
COc1cc(Cn2c(SCC(=O)Nc3cc(OC)c(OC)c(OC)c3)nc3ccccc3c2=O)cc(OC)c1OC :: 88.8

What value of growth has been reported for the following molecule? Cc1sc2nc(CSc3nnc(-c4ccco4)o3)[nH]c(=O)c2c1C
114

What value of growth has been reported for the following molecule? CC(=O)Nc1ccc(S(=O)(=O)NC(CCC(=O)Nc2ccc(Cl)cc2)C(=O)O)cc1 (centres undefined)
77.7

What value of growth has been reported for the following molecule? COc1ccc(C(=O)c2cc(OC)c(OC)c(OC)c2)cc1/C=C/C(=O)c1ccc(O)cc1
69.5

What value of growth has been reported for the following molecule? COc1cc(Cn2c(SCCC(=O)Nc3ccc(F)cc3)nc3ccccc3c2=O)cc(OC)c1OC
94.1

What value of growth has been reported for the following molecule? COc1ccc(/C=C/C(=O)c2cc(OC)c(OC)c(OC)c2)cc1OCc1cn(Cc2ccc(F)cc2)nn1
50.4

What value of growth has been reported for the following molecule? c1ccn2nnnc2c1
105

What value of growth has been reported for the following molecule? CCn1cc(C(=O)O)c(=O)c2cc(F)c(N3CCN(S(=O)(=O)c4cccc5ccccc45)CC3)cc21
15.5

What value of growth has been reported for the following molecule? CCn1cc(C(=O)O)c(=O)c2cc(F)c(N3CCN(S(=O)(=O)c4c(C)cc(C)cc4C)CC3)cc21
88.6

What value of growth has been reported for the following molecule? COC(=O)c1ccc2nc(-c3cc4ccccc4n3C)n(CCCCOc3cc4c(cc3OC)C(=O)N3CCC[C@H]3C=N4)c2c1
-1.18

What value of growth has been reported for the following molecule? CCOC(=O)c1cc(/C(=N\O)c2cc(OC)c(OC)c(OC)c2)n2cc(C)cc(C)c12
64.3

What value of growth has been reported for the following molecule? COc1ccccc1OCC(=O)Nc1sc2c(c1C(N)=O)CCC2
107

What value of growth has been reported for the following molecule? O=S(=O)(NCCCNc1cc(-c2cn(-c3ccccc3)nc2-c2cccc(O)c2)ccn1)c1ccc(Cl)cc1
37

What value of growth has been reported for the following molecule? COc1cc(-n2nc(C(=O)Nc3ccc(C(=O)O)cc3)nc2-c2ccccc2)cc(OC)c1OC
86.3

What value of growth has been reported for the following molecule? N#Cc1ccc(NC(=O)c2ccc3cccnc3c2O)cc1
60.6

What value of growth has been reported for the following molecule? COc1ccc(-c2nc3sccn3c2-c2ccnc(NCCNS(=O)(=O)c3ccc(C(F)(F)F)cc3)n2)cc1
59
